Values compiled from the supplement of paper PMC10065799.

# System: Fer (mouse);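 note: 11-residue human phosphosite peptides and single-mutation variants displayed on the E. coli surface, counted by deep sequencing, each peptide's frequency after selection divided by its frequency in the unselected input library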;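 note: frequency after pTyr selection over input frequency; kinase dosed for 20-30% of maximal phosphorylation in three min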
# Assay Explanation: phosphorylation enrichment, bacterial display (enrichment ratio); higher = better substrate or ligand; peptides without Tyr show the background
Criterion: phosphorylation enrichment meeting or surpassing 0.6. Met: 1 (yes). Not met: 0 (no).

GKFRMYVAVWT [F13A1_Y161]
0 (no)
VMTLDYSKTVV [SETD2_Y770_V768L]
0 (no)
VVHSSYDEIEG [SEC24A_Y263]
0 (no)
PRARTYCYKQE [KLHDC9_Y175_S171R]
1 (yes)
LLKNMYLMLDN [STAT1_Y203_K201N]
1 (yes)
RSHLPYDVTPE [IQGAP3_Y1098]
0 (no)

Then there is this sequence:
Req: Exam item: decide whether the reported phosphorylation enrichment for SKEPYYVRCIK [MYO1D_Y586] is at least 0.6.
Resp: 0 (no)
